# study.system: HLA-A*02:01
# experimental.protocol: IEDB peptide-MHC binding, purified MHC/competitive/fluorescence; filed as Kd, often an IC50 or EC50 that approximates it; bounds were set here for any values at or beyond the usual limits of such assays
# run.parameters: source organism: Toxoplasma gondii GT1
pKd: −log10 of the molar value.

input.sequence: VLGSWPVDL
pKd: 6.68

====

# study.system: HLA-A*24:02
# experimental.protocol: IEDB peptide-MHC binding, purified MHC/direct/fluorescence; filed as Kd, often an IC50 or EC50 that approximates it; bounds were set here for any values at or beyond the usual limits of such assays
# run.parameters: source organism: Entamoeba histolytica HM-1:IMSS
reported.endpoint: Kd

input.sequence: KFITHPFLW
result: ≤ 1 nM

====

# study.system: HLA-A*30:01
# experimental.protocol: IEDB peptide-MHC binding, purified MHC/direct/fluorescence; filed as Kd, often an IC50 or EC50 that approximates it; bounds were set here for any values at or beyond the usual limits of such assays
# run.parameters: source organism: Campylobacter jejuni
pKd: −log10 of the molar value.

input.sequence: ALIVAIWDK
study.system: HLA-A*30:01
pKd: 5.07

====

# study.system: HLA-C*14:02
# experimental.protocol: IEDB peptide-MHC binding, purified MHC/competitive/fluorescence; filed as Kd, often an IC50 or EC50 that approximates it; bounds were set here for any values at or beyond the usual limits of such assays
# run.parameters: source organism: Influenza A virus (A/swine/Hannover/1/1981(H1N1))
reported.endpoint: Kd

input.sequence: RRRFVQNAL
result: 0.21 µM

====

# study.system: HLA-B*15:17
# experimental.protocol: IEDB peptide-MHC binding, purified MHC/competitive/fluorescence; filed as Kd, often an IC50 or EC50 that approximates it; bounds were set here for any values at or beyond the usual limits of such assays
# run.parameters: source organism: Brucella abortus S19
pKd: −log10 of the molar value.

input.sequence: KQWIVAGAI
pKd: ≤ 4.70

====

# study.system: HLA-A*33:01
# experimental.protocol: IEDB peptide-MHC binding, purified MHC/competitive/radioactivity; filed as Kd, often an IC50 or EC50 that approximates it; bounds were set here for any values at or beyond the usual limits of such assays
# run.parameters: source organism: Vaccinia virus WR
Could you mark each record criterion met if its Kd falls strictly under 6 µM, and criterion not met if it equals or exceeds it?

input.sequence: DFESVTNSVY
category: criterion not met

input.sequence: SIYSRPKIK
category: criterion not met

input.sequence: NAISSRVDRY
category: criterion not met

input.sequence: SAFNDDGIY
category: criterion not met

input.sequence: IFPGDKTSY
category: criterion not met

input.sequence: AFDISVNASK
category: criterion not met

input.sequence: TILLSDKGK
category: criterion not met

input.sequence: EISSNDNAK
category: criterion not met

input.sequence: LMYDIINSV
category: criterion not met

input.sequence: ALKKLIIDR
category: criterion met

input.sequence: HAFDAPTLY
category: criterion not met

input.sequence: SSFIMRNFLR
category: criterion met

input.sequence: HLRVLFSIFY
category: criterion met

input.sequence: LSSIKSKSRR
category: criterion not met

input.sequence: LIMFEQYFIY
category: criterion not met

input.sequence: TVKTNLYMK
category: criterion not met

input.sequence: RIRQQLPLY
category: criterion not met

input.sequence: PSAEDNYLAK
category: criterion met

input.sequence: CTDPSERVFK
category: criterion not met

input.sequence: LSARNKLFK
category: criterion not met

input.sequence: LFIDRGSIK
category: criterion met

input.sequence: TMCTEETKR
category: criterion not met

input.sequence: IAARILSEK
category: criterion met

input.sequence: MATMLEYVRY
category: criterion not met

input.sequence: PISELSRLR
category: criterion met

input.sequence: VSIILANERY
category: criterion not met
